Measured Ki accompanies every entry in the list below.
Target: PKC delta kinase (Homo sapiens, UniProt Q05655)
Sequence (Q05655 whole entry): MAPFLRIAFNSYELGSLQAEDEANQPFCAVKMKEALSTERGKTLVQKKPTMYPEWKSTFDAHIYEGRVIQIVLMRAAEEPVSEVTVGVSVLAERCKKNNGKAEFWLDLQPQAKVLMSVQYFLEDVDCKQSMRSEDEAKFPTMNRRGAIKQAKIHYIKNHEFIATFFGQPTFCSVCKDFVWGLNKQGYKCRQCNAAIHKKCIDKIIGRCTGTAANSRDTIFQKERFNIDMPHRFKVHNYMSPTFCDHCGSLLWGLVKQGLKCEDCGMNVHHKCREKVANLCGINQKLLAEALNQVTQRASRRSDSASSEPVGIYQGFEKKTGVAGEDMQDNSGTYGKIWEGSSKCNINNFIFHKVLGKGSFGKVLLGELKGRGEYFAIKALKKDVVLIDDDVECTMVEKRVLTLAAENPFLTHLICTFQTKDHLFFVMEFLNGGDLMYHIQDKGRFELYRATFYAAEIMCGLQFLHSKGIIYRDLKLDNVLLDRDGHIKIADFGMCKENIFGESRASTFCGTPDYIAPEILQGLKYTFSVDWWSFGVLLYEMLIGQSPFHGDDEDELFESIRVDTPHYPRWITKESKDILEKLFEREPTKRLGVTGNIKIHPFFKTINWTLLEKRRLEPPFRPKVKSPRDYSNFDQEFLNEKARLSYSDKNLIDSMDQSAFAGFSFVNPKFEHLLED
Assay: PKC delta kinase inhibition, coupled-enzyme NADH absorbance assay (Ki)
Format: biochemical
Conditions: 150 μM ATP, 46 nM PKC delta, 30° C.; read-out: Ki PKC delta

{"compound": "N#CC(c1cccc(-c2ccnc3[nH]ncc23)c1)N1CCOCC1 (centres unmarked) [Compound 320]", "Ki": "> 1200 nM"}
{"compound": "CC1(c2cccc(-c3ccnc4[nH]ncc34)c2)CCNC1 (centres unmarked) [Compound 195]", "Ki": "< 500 nM"}
{"compound": "CCc1n[nH]c2nccc(-c3cc(C)cc(C4(CN)CC4)c3)c12 [Compound 265]", "Ki": "< 500 nM"}
{"compound": "CCC(C)(C#N)c1cc(CCCOC)cc(-c2ccnc3[nH]ncc23)c1 (centres unmarked) [Compound 109]", "Ki": "> 2000 nM"}
{"compound": "CC#CC[C@@](C)(CN)c1cccc(-c2ccnc3[nH]ncc23)c1 [Compound 186]", "Ki": "< 2800 nM"}

###

Molecular target: PKC theta kinase (Homo sapiens, UniProt Q04759)
Sequence (Q04759 whole entry): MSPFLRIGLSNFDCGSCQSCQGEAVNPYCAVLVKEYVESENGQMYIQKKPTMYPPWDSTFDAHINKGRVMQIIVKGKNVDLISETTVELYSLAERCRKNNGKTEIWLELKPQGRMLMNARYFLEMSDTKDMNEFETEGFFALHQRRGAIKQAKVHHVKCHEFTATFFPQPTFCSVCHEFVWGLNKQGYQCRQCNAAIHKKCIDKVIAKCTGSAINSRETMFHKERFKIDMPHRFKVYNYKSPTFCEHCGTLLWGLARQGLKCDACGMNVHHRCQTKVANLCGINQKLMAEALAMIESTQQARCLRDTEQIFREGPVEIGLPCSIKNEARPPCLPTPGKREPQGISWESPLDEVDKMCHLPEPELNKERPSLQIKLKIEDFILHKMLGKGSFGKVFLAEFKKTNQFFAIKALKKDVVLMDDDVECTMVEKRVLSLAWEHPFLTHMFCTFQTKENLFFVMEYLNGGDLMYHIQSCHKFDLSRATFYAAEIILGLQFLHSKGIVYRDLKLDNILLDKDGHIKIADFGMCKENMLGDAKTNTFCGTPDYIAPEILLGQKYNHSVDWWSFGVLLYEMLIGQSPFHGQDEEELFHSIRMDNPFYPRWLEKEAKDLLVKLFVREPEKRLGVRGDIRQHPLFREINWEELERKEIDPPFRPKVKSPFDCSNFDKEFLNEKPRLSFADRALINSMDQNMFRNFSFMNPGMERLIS
Experiment: PKC theta kinase inhibition, coupled-enzyme NADH absorbance assay (Ki)
Assay type: biochemical
Details: 240 μM ATP, 18 nM PKC theta, 30° C.; read-out: Ki PKC theta

{"compound": "NCC1(c2cc(F)cc(-c3ccnc4[nH]nc(C5CC5)c34)c2)CCC1", "systemTested": "PKC theta kinase (Homo sapiens, UniProt Q04759)", "Ki": "< 50 nM"}
{"compound": "CCC(C)(CN)c1cc(-c2ccnc3[nH]ncc23)cc(C(F)F)c1 (stereo not drawn)", "systemTested": "PKC theta kinase (Homo sapiens, UniProt Q04759)", "Ki": "< 50 nM"}
{"compound": "COCCC(C)(CN)c1cccc(-c2ccnc3[nH]nc(C(F)(F)F)c23)c1 (stereo not drawn)", "systemTested": "PKC theta kinase (Homo sapiens, UniProt Q04759)", "Ki": "< 50 nM"}
{"compound": "CCc1n[nH]c2nccc(-c3cccc(C(C)(CC)CN)c3)c12 (stereo not drawn)", "systemTested": "PKC theta kinase (Homo sapiens, UniProt Q04759)", "Ki": "< 50 nM"}
{"compound": "OCC1(c2cccc(-c3ccnc4[nH]ncc34)c2)CC1", "systemTested": "PKC theta kinase (Homo sapiens, UniProt Q04759)", "Ki": "< 500 nM"}
{"compound": "CCC(C)(CN)c1cc(CCCO)cc(-c2ccnc3[nH]nc(Cl)c23)c1 (stereo not drawn)", "systemTested": "PKC theta kinase (Homo sapiens, UniProt Q04759)", "Ki": "< 50 nM"}
{"compound": "C/C=C\\c1cc(-c2ccnc3[nH]ncc23)cc(C(C)(CC)CN)c1 (stereo not drawn)", "systemTested": "PKC theta kinase (Homo sapiens, UniProt Q04759)", "Ki": "< 500 nM"}
{"compound": "CCC(C)(CO)c1cccc(-c2ccnc3[nH]nc(C(F)(F)F)c23)c1 (stereo not drawn)", "systemTested": "PKC theta kinase (Homo sapiens, UniProt Q04759)", "Ki": "< 50 nM"}
{"compound": "CCC(C)(CN)c1cc(CC(C)C)cc(-c2ccnc3[nH]ncc23)c1 (stereo not drawn)", "systemTested": "PKC theta kinase (Homo sapiens, UniProt Q04759)", "Ki": "< 500 nM"}

###

Biological target: PKC alpha kinase (Homo sapiens)
Experiment: PKC alpha kinase inhibition, coupled-enzyme NADH absorbance assay (Ki)
Type: biochemical
Conditions: 130 μM ATP, 4.5 nM PKC alpha, 30° C.; read-out: Ki PKC alpha
pKi: −log10 of the molar value.
Measured pKi accompanies every entry in the list below.
quantityName: pKi

{"compound": "CC(CN)(c1cccc(-c2ccnc3[nH]ncc23)c1)C1CCCC1 (centres unmarked)", "quantityName": "pKi", "readoutValue": "> 6.30"}
{"compound": "CCC(C)(CN)c1cccc(-c2ccnc3[nH]nc(C(F)(F)F)c23)c1 (centres unmarked)", "quantityName": "pKi", "readoutValue": "> 7.30"}
{"compound": "CCC(C)(CN)c1cc(-c2ccnc3[nH]ncc23)cc(C(F)F)c1 (centres unmarked)", "quantityName": "pKi", "readoutValue": "> 6.30"}
{"compound": "NCC1(c2cccc(-c3ccnc4[nH]ncc34)c2)COC1", "quantityName": "pKi", "readoutValue": "< 5.92"}
{"compound": "CCc1ccc(-c2ccnc3[nH]ncc23)cc1C(C)(C)CN", "quantityName": "pKi", "readoutValue": "> 5.55"}

###

Biological target: PKC alpha kinase (Homo sapiens, UniProt P17252)
Assay: PKC alpha kinase inhibition, coupled-enzyme NADH absorbance assay (Ki)
Assay type: biochemical
Settings: 130 μM ATP, 4.5 nM PKC alpha, 30° C.; read-out: Ki PKC alpha
Description: An assay buffer solution was prepared which consisted of 100 mM HEPES (pH 7.5), 10 mM MgCl2, 25 mM NaCl, 0.1 mM EDTA, 100 μM CaCl2 and 0.01% Brij. […] To 16 μL of this enzyme buffer, in a 384 well plate, was added 1 μL of VRT stock solution in DMSO. […] Initial rate data was determined from the rate of change of absorbance at 340 nm (corresponding to stoichiometric consumption of NADH) using a Molecular Devices Spectramax plate reader (Sunnyvale, Calif.) over 15 mins at 30° C. […]
Measured Ki accompanies every entry in the list below.

{"compound": "CC(C)(C#N)c1cc(NCCCN)cc(-c2ccnc3[nH]ncc23)c1 [Compound 21]", "Ki": "> 2800 nM"}
{"compound": "CC(C#N)(Cc1ccccc1)c1cccc(-c2ccnc3[nH]ncc23)c1 (stereo not shown) [Compound 100]", "Ki": "> 390 nM"}
{"compound": "CC(CN)(CC1CC1)c1cccc(-c2ccnc3[nH]ncc23)c1 (stereo not shown) [Compound 129]", "Ki": "< 500 nM"}
{"compound": "CCC(N)c1cccc(-c2ccnc3[nH]nc(C(F)(F)F)c23)c1 (stereo not shown) [Compound 309]", "Ki": "< 2800 nM"}
{"compound": "CCc1n[nH]c2nccc(-c3cc(C)cc(C4(CN)CC4)c3)c12 [Compound 265]", "Ki": "< 500 nM"}
{"compound": "CCC(C)(C#N)c1cc(Br)cc(-c2ccnc3[nH]ncc23)c1 (stereo not shown) [Compound 30]", "Ki": "< 2800 nM"}
{"compound": "N#CC1(c2cc(-c3ccnc4[nH]nc(C(F)(F)F)c34)cc(C(F)(F)CN)c2)CC1 [Compound 311]", "Ki": "< 500 nM"}
{"compound": "FC(F)C1(c2cccc(-c3ccnc4[nH]ncc34)c2)CCNC1 (stereo not shown) [Compound 201]", "Ki": "< 500 nM"}
{"compound": "Cc1cc(/C(=C/C#N)CN)cc(-c2ccnc3[nH]ncc23)c1 [Compound 323]", "Ki": "< 500 nM"}
{"compound": "CC(C#N)(c1cccc(-c2ccnc3[nH]ncc23)c1)C1CCCC1 (stereo not shown) [Compound 72]", "Ki": "> 2800 nM"}
{"compound": "OCc1cccc(-c2ccnc3[nH]ncc23)c1 [Compound 322]", "Ki": "> 1200 nM"}
{"compound": "COCC(C)(C#N)c1cccc(-c2ccnc3[nH]ncc23)c1 (stereo not shown) [Compound 95]", "Ki": "< 2800 nM"}
{"compound": "CC(CC#N)c1cc(Br)cc(-c2ccnc3[nH]ncc23)c1 (stereo not shown) [Compound 238]", "Ki": "< 2800 nM"}
{"compound": "CC(C)CC(C)(CN)c1cccc(-c2ccnc3[nH]ncc23)c1 (stereo not shown) [Compound 45]", "Ki": "< 500 nM"}
{"compound": "NC1(c2cccc(-c3ccnc4[nH]ncc34)c2)CC1 [Compound 223]", "Ki": "> 1200 nM"}
{"compound": "CC(C)C(C)(C#N)c1cccc(-c2ccnc3[nH]ncc23)c1 (stereo not shown) [Compound 70]", "Ki": "< 2800 nM"}
{"compound": "NCC1(c2cc(F)cc(-c3ccnc4[nH]nc(Br)c34)c2)CCC1 [Compound 261]", "Ki": "< 50 nM"}
{"compound": "NCC1(c2cccc(-c3ccnc4[nH]ncc34)c2)CCOCC1 [Compound 157]", "Ki": "< 2800 nM"}
{"compound": "Cc1cc(-c2ccnc3[nH]ncc23)cc(C2(CN)CCC2)c1 [Compound 145]", "Ki": "< 2800 nM"}

###

Target: PKC delta kinase (Homo sapiens)
Assay: PKC delta kinase inhibition, coupled-enzyme NADH absorbance assay (Ki)
Type: biochemical
Settings: 150 μM ATP, 46 nM PKC delta, 30° C.; read-out: Ki PKC delta
pKi: −log10 of the molar value.
Measured pKi accompanies every entry in the list below.

{"molecule": "NC1(c2cccc(-c3ccnc4[nH]ncc34)c2)CC1 [Compound 223]", "pKi": "< 5.70"}
{"molecule": "Cc1cc(-c2ccnc3[nH]nc(C(F)(F)F)c23)cc(C2(CN)CCOCC2)c1 [Compound 275]", "pKi": "> 6.30"}
{"molecule": "CC(F)c1cc(-c2ccnc3[nH]ncc23)cc(C(C)(C)C#N)c1 (stereo not drawn) [Compound 88]", "pKi": "> 5.55"}
{"molecule": "NCC1(c2cc(-c3ccnc4[nH]ncc34)cc(C(F)(F)F)c2)CCC1 [Compound 140]", "pKi": "> 5.55"}
{"molecule": "NCC1(c2cccc(-c3ccnc4[nH]ncc34)c2)CCOCC1 [Compound 157]", "pKi": "> 5.55"}
{"molecule": "C1=C(c2cccc(-c3ccnc4[nH]ncc34)c2)CCNC1 [Compound 216]", "pKi": "> 5.55"}
{"molecule": "NCC1(c2cccc(-c3ccnc4[nH]nc(C(F)(F)F)c34)c2)CCOCC1 [Compound 214]", "pKi": "> 6.30"}
{"molecule": "C=CCC1(c2cc(C)cc(-c3ccnc4[nH]ncc34)c2)CN(C)C(=O)O1 (stereo not drawn) [Compound 326]", "pKi": "< 5.92"}
{"molecule": "CCc1cc(-c2ccnc3[nH]ncc23)cc(C(C)(C)C#N)c1 [Compound 62]", "pKi": "< 5.55"}
